Source of measurements: PubChem BioAssay AID1159580

- procedure.text: chemical genetic growth profiling, strain panel (AID 1159580);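 further: tested at 20 µM; growth read once vehicle control cultures reached saturation at 30 °C; 1 = growth at the plate median or of vehicle wells; lower values mean less growth of the strain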
- study.conditions: S. cerevisiae deletion strains, growth OD, locus YDR388W, hits give low values
In all, about 5,500 compounds went through this assay and about 2,000 (36%) were called active. Roughly 18% stayed inconclusive and do not appear here. The list shows a part of the results.
reported.endpoint: normalized growth

>>> measured_value("CNCCC(Oc1ccc(C(F)(F)F)cc1)c1ccccc1 (stereo not given)")
0.93
>>> measured_value("CCCCCCCCCCC[C@@H](C[C@H]1OC(=O)[C@H]1CCCCCC)OC(=O)[C@@H](CC(C)C)NC=O")
1.02
>>> measured_value("COC(=O)c1cc(=O)c(O)c2c(O)c(O)ccc2c1")
0.954
>>> measured_value("COc1c(N2CCNC(C)C2)c(F)cc2c(=O)c(C(=O)O)cn(C3CC3)c12 (stereo not given)")
0.993
>>> measured_value("CN1C2C[C@H](OC(=O)[C@H](CO)c3ccccc3)C[C@H]1[C@@H](O)C2")
1
>>> measured_value("O=C(O)/C=C/c1ccc(O)c(O)c1")
1.01
>>> measured_value("CCn1cc(C(=O)O)c(=O)c2cc(F)c(N3CCNCC3)nc21")
1.01
>>> measured_value("CCCCC[C@H]1C(=O)O[C@H](C)[C@H](NC(=O)c2cccc(NC=O)c2O)C(=O)O[C@@H](C)[C@@H]1OC(=O)CC(C)C")
0.913
>>> measured_value("CN1CC(CO)=C[C@@H]2c3cccc4[nH]cc(c34)C[C@H]21")
1.01
>>> measured_value("CC[C@@]1(O)C[C@H](O)c2c(cc3c(c2O)C(=O)c2c(O)ccc(O)c2C3=O)[C@H]1C(=O)OC")
0.811

----------
- procedure.text: chemical genetic growth profiling, strain panel (AID 1159580)
- study.conditions: S. cerevisiae deletion strains, growth OD, locus YJL166W, strain qcr8
Among all 5,500 compounds or so, about 2,000 (36%) were called active. About 18% were inconclusive and are not listed. Rule as the data show it: active = normalized growth mostly below about 0.91 (no sharp cut-off); inconclusive = no clear call, values can overlap the other calls; inactive = mostly above about 0.92. The list shows a part of the results.
Classes used: active, inactive

>>> cat("Oc1cc(O)c2c(c1)O[C@H](c1cc(O)c(O)c(O)c1)[C@H](O)C2")
"inactive"
>>> cat("Oc1ccc2c(c1)O[C@H](c1ccc(O)c(O)c1)[C@@H](O)C2")
"inactive"
>>> cat("Nc1ncn[nH]1")
"inactive"
>>> cat("Cc1ncc(CNC(=O)N(CCCl)N=O)c(N)n1")
"inactive"
>>> cat("CC[C@@H]1C=C/C=C/C[C@H](C)[C@@H](O)[C@](C)(O)C(=O)[C@H](C)[C@@H](O)[C@H](C)C(=O)[C@H](C)[C@@H](O)[C@H](C)/C=C/C(=O)O[C@H]2[C@@H](C)[C@@H](CC1)O[C@@]1(CC[C@@H](C)[C@@H](C[C@H](C)O)O1)[C@@H]2C")
"inactive"
>>> cat("O=c1cccc2ccc(O)c(O)c2c1O")
"active"
>>> cat("CCN(CC)C(=O)N1CCN(C)CC1")
"inactive"
>>> cat("Nc1nc(=S)c2[nH]cnc2[nH]1")
"inactive"
>>> cat("N=c1ccn2c(n1)OC1C(O)C(CO)OC12 (centres undefined)")
"inactive"
>>> cat("Cc1[nH]c2ccccc2c1CN(C)C")
"inactive"
>>> cat("CCC(C)C(=O)O[C@@H]1C[C@@]2(C)[C@H](c3ccoc3)OC(=O)CC23OC2(C)OC34[C@H](OC(=O)C(C)C)[C@@]3(O)[C@@H](OC(=O)C5(C)OC5C)[C@@]5(C)C[C@]3(O)[C@@](C)([C@H]5CC(=O)OC)C14O2 (some centres undefined)")
"inactive"
>>> cat("Oc1cc(O)c2c(c1)O[C@H](c1ccc(O)c(O)c1)[C@@H](O)C2")
"inactive"
>>> cat("COC(=O)c1cc(=O)c(O)c2c(O)c(O)ccc2c1")
"inactive"
>>> cat("COc1ccc(C(=O)CC(=O)O)c2c1C=CC(C)(C)O2")
"inactive"

----------
- procedure.text: chemical genetic growth profiling, strain panel (AID 1159580)
- study.conditions: S. cerevisiae deletion strains, growth OD, locus YBR021W, strain FUR4, hits give low values
About 2,000 (36%) of roughly 5,500 compounds were called active. About 18% were inconclusive and are not listed. The list shows a part of the results.
reported.endpoint: normalized growth

>>> measured_value("C[C@]12CCC(=O)C=C1C=CC1C2CC[C@@]2(C)C1CC[C@@]21CCC(=O)O1 (some centres not stated)")
1
>>> measured_value("Clc1ccc(C(c2ccc(Cl)cc2)C(Cl)(Cl)Cl)cc1")
0.999
>>> measured_value("CCN(CC)Cc1ccc(Nc2ccnc3cc(Cl)ccc23)cc1O")
0.995
>>> measured_value("Cc1ncc(CNC(=O)N(CCCl)N=O)c(N)n1")
0.994
>>> measured_value("CCn1cc(C(=O)O)c(=O)c2cc(F)c(N3CCNCC3)nc21")
1.01
>>> measured_value("O=c1cccc2ccc(O)c(O)c2c1O")
1.02
>>> measured_value("CC(=O)Oc1cc(OC(C)=O)c2c(c1)O[C@H](c1ccc(OC(C)=O)c(OC(C)=O)c1)[C@@H](OC(C)=O)C2")
0.975
>>> measured_value("COc1ccc(C(CN(C)C)C2(O)CCCCC2)cc1 (configuration not stated)")
1.02
>>> measured_value("COc1ccc(OC)c(C(O)CNC(=O)CN)c1 (configuration not stated)")
1.02
>>> measured_value("COC(=O)C[C@H]1C2(C)CC34OC5(C)O[C@@]6([C@H](OC)C(OC(=O)C(C)C)[C@]7(C)C(/C(=C(/OC)C(C)C)C(=O)O[C@H]7c7ccoc7)[C@@]6(O5)[C@H](OC)[C@@]3(OC)C2OC(C)=O)[C@]14C (some centres not stated)")
1.02
>>> measured_value("COc1ccc(C(=O)O)cc1OC")
1.02
>>> measured_value("CCC(C)C(=O)OC1CC2(C)C(c3ccoc3)OC(=O)CC23OC2(C)OC34C(OC(=O)C(C)C)C3(O)C(OC(=O)C5(C)OC5C)C5(C)CC3(O)C(C)(C5C(=O)OC)C14O2 (configuration not stated)")
1.01

----------
- procedure.text: chemical genetic growth profiling, strain panel (AID 1159580);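 further: tested at 20 µM; growth read once vehicle control cultures reached saturation at 30 °C; 1 = growth at the plate median or of vehicle wells; lower values mean less growth of the strain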
- study.conditions: S. cerevisiae deletion strains, growth OD, locus YLR113W, strain HOG1, hits give low values
The whole screen tested about 5,500 compounds, of which about 2,000 (36%) were called active. Inconclusive results (about 18%) are left out. Some of the results follow.
reported.endpoint: normalized growth

>>> measured_value("CCOC(=O)n1ccn(C)c1=S")
0.999
>>> measured_value("COc1ccc(CN(CCN(C)C)c2ccccn2)cc1")
1.01
>>> measured_value("COc1ccc(-c2coc3cc(OC)ccc3c2=O)cc1")
0.984
>>> measured_value("CCN(CC)C(=O)N1CCN(C)CC1")
1

----------
Attribute: normalized growth
- procedure.text: chemical genetic growth profiling, strain panel (AID 1159580);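 further: tested at 20 µM; growth read once vehicle control cultures reached saturation at 30 °C; 1 = growth at the plate median or of vehicle wells; lower values mean less growth of the strain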
- study.conditions: S. cerevisiae deletion strains, growth OD, locus YNL298W, strain CLA4, hits give low values
Screen size: about 5,500 compounds; about 2,000 (36%) were called active. Another 18% or so got no clear call; they are omitted. This is one part of the list.
reported.endpoint: normalized growth

>>> measured_value("OCC(O)CN1CCN(c2ccccc2)CC1 (centres undefined)")
0.985
>>> measured_value("C[C@]12CCC(=O)C=C1C=CC1C2CC[C@@]2(C)C1CC[C@@]2(O)CCC(=O)O (some centres undefined)")
0.984
>>> measured_value("NS(=O)(=O)c1cc2c(cc1Cl)NC=NS2(=O)=O")
1
>>> measured_value("COC(=O)C[C@H]1C2(C)CC34OC5(C)O[C@@]6([C@H](OC)C(OC(=O)C(C)C)[C@]7(C)C(/C(=C(/OC)C(C)C)C(=O)O[C@H]7c7ccoc7)[C@@]6(O5)[C@H](OC)[C@@]3(OC)C2OC(C)=O)[C@]14C (some centres undefined)")
1
>>> measured_value("CC1(C)S[C@@H]2[C@H](NC(=O)[C@H](N)c3ccccc3)C(=O)N2[C@H]1C(=O)O")
1.01
>>> measured_value("CN1CCC(OC(c2ccccc2)c2ccccc2)CC1")
0.985
>>> measured_value("COc1ccc(C(=O)O)cc1OC")
0.997
>>> measured_value("C=CCc1ccc(O)c(OC)c1")
0.995
>>> measured_value("O=c1cccc2ccc(O)c(O)c2c1O")
0.982

----------
Attribute: normalized growth
- procedure.text: chemical genetic growth profiling, strain panel (AID 1159580);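 further: tested at 20 µM; growth read once vehicle control cultures reached saturation at 30 °C; 1 = growth at the plate median or of vehicle wells; lower values mean less growth of the strain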
- study.conditions: S. cerevisiae deletion strains, growth OD, locus YMR219W, strain ESC1, hits give low values
Hit rate of the full screen: of about 5,500 compounds, about 2,000 (36%) were called active. Not shown: some 18% with an inconclusive outcome. The list shows a part of the results.
reported.endpoint: normalized growth

>>> measured_value("C/C(=C\\C(=O)Nc1ccc(F)cc1)Nc1ccc(F)cc1")
"1 (inactive)"
>>> measured_value("CC(C)(C)S(=O)(=O)/C(C#N)=C/c1ccc(F)cc1F")
"0.989 (inactive)"
>>> measured_value("CCCOc1ccccc1/C=N\\NC(=S)Nc1cccc(F)c1")
"1.01 (inactive)"
>>> measured_value("COC(=O)c1ccc(Cl)cc1NS(=O)(=O)c1ccc(OC)c(OC)c1")
"1 (inactive)"
